Provide the recorded LogP for the entries that follow.
Assay: Log P by HPLC on reversed phase columns (EEC directive 79/831 Annex V.A8)
Type: physicochemical
Conditions: method [a]: LC-UV, acidic range, 0.1% formic acid in water and acetonitrile as eluent
Description: If more than one Log P value is available within the same method, all the values are given and separated by “+”. Calibration was done with straight-chain alkan2-ones (with 3 to 16 carbon atoms) with known Log P values (measurement of Log P values using retention times with linear interpolation between successive alkanones). Lambda-max-values were determined using UV-spectra from 200 nm to 400 nm and the peak values of the chromatographic signals.

## Input // query LogP value for entry O=C1OC(c2sc(Cl)c(Cl)c2Br)=NC12CC2 [III.07]
## Output 4.12^[a]

## Input And for O=C(O)c1sc(Cl)c(Cl)c1Br [XXIIa.06] ?
## Output 2.52^[a]

## Input And for CCOC(=O)C1(NC(=O)c2sc(Cl)c(Cl)c2N)CC1 [XXVIII.01] ?
## Output 2.77^[a]

## Input And for O=C1OC(c2sc(Br)c(Br)c2I)=NC12CC2 [III.05] ?
## Output 4.30^[a]

## Input And for Cc1c(C(=O)NC2(C(=O)O)CC2)sc(Cl)c1Cl [XXI.14] ?
## Output 2.17^[a]

## Input And for O=C1OC(c2sc(Br)c(Br)c2Cl)=NC12CC2 [III.08] ?
## Output 4.08^[a]
